Biological target: KRAS G12D (Homo sapiens (Human), UniProt P01116+P62937, G12D)
Sequence (P01116 other isoform, or with tags, fused parts or gaps G12D): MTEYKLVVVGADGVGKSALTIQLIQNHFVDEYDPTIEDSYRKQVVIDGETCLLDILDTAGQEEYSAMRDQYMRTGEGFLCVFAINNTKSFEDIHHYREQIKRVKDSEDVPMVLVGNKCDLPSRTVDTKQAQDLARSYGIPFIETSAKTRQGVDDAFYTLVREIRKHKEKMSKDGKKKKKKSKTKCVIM
Sequence (P62937 whole entry): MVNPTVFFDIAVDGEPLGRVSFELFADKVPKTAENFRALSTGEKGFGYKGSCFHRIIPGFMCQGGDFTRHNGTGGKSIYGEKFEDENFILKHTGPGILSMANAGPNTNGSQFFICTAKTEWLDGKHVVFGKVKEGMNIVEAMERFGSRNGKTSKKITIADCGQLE
Assay: Ras-Raf disruption/FRET/MOA assay (BRAF RBD, Cyclophilin A)
Type: biochemical
Details: read-out: KRAS G12D FRET IC50
pIC50: −log10 of the molar value.
assay.metric: pIC50

{"compound": "CCn1c(-c2cccnc2[C@H](C)OC)c2c3cc(ccc31)-c1csc(n1)C[C@H](NC(=O)[C@H](C(C)C)N(C)C(=O)N(C)C[C@H]1CCN1C)C(=O)N1CCC[C@H](N1)C(=O)OCC(C)(C)C2", "pIC50": "6.00 to 7.00"}

GET /values?readout=pIC50&item= CCn1c(-c2cccnc2[C@H](C)OC)c2c3cc(ccc31)-c1cc(O)cc(c1)C[C@H](NC(=O)C13CCCC1C3(F)F)C(=O)N1CCC[C@H](N1)C(=O)OCC(C)(C)C2 (some centres unmarked) < 5.00

GET /values?readout=pIC50&item= CCn1c(-c2cccnc2[C@H](C)OC)c2c3cc(ccc31)-c1cc(O)cc(c1)C[C@H](NC(=O)[C@H](C(C)C)N(C)C(=O)[C@@H]1NC[C@@H]3C[C@@H]31)C(=O)N1CCC[C@H](N1)C(=O)OCC(C)(C)C2 6.00 to 7.00

GET /values?readout=pIC50&item= CCn1c(-c2cccnc2[C@H](C)OC)c2c3cc(ccc31)-c1csc(n1)C[C@H](NC(=O)C1CC1)C(=O)N1CCC[C@H](N1)C(=O)OCC(C)(C)C2 5.00 to 6.00

GET /values?readout=pIC50&item= CCn1c(-c2cccnc2[C@H](C)OC)c2c3cc(ccc31)-c1csc(n1)C[C@H](NC(=O)[C@@H]1CCO1)C(=O)N1CCC[C@H](N1)C(=O)OCC(C)(C)C2 5.00 to 6.00
